- System: skin erythema
- PROTOCOL TEXT: Activity for inhibiting skin erythema caused by ultraviolet radiation
- Assay type: in vivo, albino guinea pig (Hartley strain, female, 7-8 week age)
- CONDITION SUMMARY: topical; three concentrations within 0.1 to 10%
- Excerpt: The hairs covering in the back of albino guinea pig (Hartley strain, female, 7-8 week age) were shaved by using an electric hair clippers and a shaver. In the next day, the guinea pig was fixed in Bowlman's cage, then a light shield tape (adhesive plaster for patch test), having 4 round holes of 1.5 cm in diameter was adhered on the hair clipped portion so as to provide 4 sites (round holes) to be exposed to the ultraviolet rays. […]
MEASURE: 50% inhibitory concentration (IC50) for inhibiting the skin erythema (concentration in %)

1) C=CCc1cc2c(c(CC=C)c1O)CCC(=O)N2CC1CCCCC1
1.6
2) C=CCc1cc2c(c(CC=C)c1O)N(CC=C)C(=O)CO2
7.7
3) C=CCc1cc2c(c(CC=C)c1O)CCC(=O)N2CCCCCCCCCCCC
3.7
4) C=CCc1cc2c(c(CC=C)c1O)OCC(=O)N2CC=C
9.8
5) C=CCc1cc2c(c(CC=C)c1O)CCC(=O)N2CC(=O)[O-].[Na+]
2.5
6) C=CCc1cc2c(c(CC=C)c1O)CCC(=O)N2CC=C(C)C
1.3
7) C=CCc1cc2c(c(CC=C)c1O)CCC(=O)N2CCCCCCCCCCO
9.4
8) C=CCc1cc2c(c(CC=C)c1O)CCC(=O)N2CC(=O)O
3.1
9) C=CCc1cc2c(sc(=O)n2CC=C)c(CC=C)c1O
4.7
10) C=CCc1cc2c(c(CC=C)c1O)CCC(=O)N2CC(C)C
2.0
11) C=CCc1cc2c(c(CC=C)c1O)CCC(=O)N2CC(N)=O
2.7
12) C=CCc1c(O)ccc2c1CCC(=O)N2CCCCCCCCCCO
6.5
13) C=CCc1cc2c(c(CC=C)c1O)NC(=O)CO2
5.9
14) C=CCc1cc2c(c(CC=C)c1O)CCC(=O)N2C
5.6

###

- Test system: lens samples obtained from rat
- PROTOCOL TEXT: Activity for preventing the lens opacity (UV-irradiated cultured lens)
- Type: cell-based, rat (Wistar strain, male, 6-10 week age)
- CONDITION SUMMARY: 1 h, test compound 1 x 10^-4 M, UV 8.8 mW/cm^2, 60 minutes, read-out: Rate of the activity for preventing lens opacity
List of inhibition at 100 µM values.
MEASURE: inhibition at 100 µM

1) C=CCc1cc2c(c(CC=C)c1O)CCC(=O)N2CC(C)C
55%
2) C=CCc1cc2c(c(CC=C)c1O)CCC(=O)N2CCOC(C)=O
57%
3) C=CCc1cc2c(c(CC=C)c1O)CCC(=O)N2C(C)C
45%
4) C=CCc1cc2c(c(CC=C)c1O)CCC(=O)N2CCO
66%
5) C=CCc1cc2c(c(CC=C)c1O)CCC(=O)N2CCCCCCCC
55%
6) C=CCc1cc2c(c(CC=C)c1O)CCC(=O)N2CCCN.Cl [Example 67, hydrochloride]
40%
7) O=C1O[C@H]([C@@H](O)CO)C(O)=C1O [Vitamin C, reference compound]
-11%
